assay-notes: Drug exposure in mouse brain at 10 mg/kg, po after 24 hrs
Type: ADME, organism-based
Design: route oral, dose 10 mg/kg, time 24 hrs
value-type: AUC at 24 h (µM·h)

| smiles-code | unit-label | quantitative-readout |
| --- | --- | --- |
| C#Cc1cccc(Nc2ncnc3cc(OCCOC)c(OCCOC)cc23)c1 | µM·h | 4.32 |

---

target-or-system: Epidermal growth factor receptor (Homo sapiens)
assay-notes: Inhibition of human recombinant EGFR expressed in baculovirus infected Sf9 insect cells using poly (Glu, Tyr) 4:1 peptide as substrate incubated for 40 mins in presence of 10 uM ATP by ADP-Glo luminescence assay
Listed here are compounds together with their documented IC50.

| smiles-code | IC50, nM |
| --- | --- |
| Oc1c(Br)cccc1Nc1ncnc2cc3c(cc12)OCCO3 | 505 |
| Fc1ccc(Br)c(F)c1Nc1ncnc2cc3c(cc12)OCCO3 | 10 |
| Fc1ccc(Br)cc1Nc1ncnc2cc3c(cc12)OCCO3 | 7.63 |
| N#Cc1cccc(Nc2ncnc3cc4c(cc23)OCCO4)c1 | 24 |
| Fc1c(Br)cc(Cl)cc1Nc1ncnc2cc3c(cc12)OCCO3 | 783 |
| Fc1c(Nc2ncnc3cc4c(cc23)OCCO4)ccc(Cl)c1Cl | 25 |

---

assay-notes: Drug exposure in mouse plasma at 80 mg/kg, po after 24 hrs
Type: ADME, organism-based
Parameters: route oral, time 24 hrs, dose 80 mg/kg

| smiles-code | unit-label | AUC at 24 h |
| --- | --- | --- |
| CS(=O)(=O)CCNCc1ccc(-c2ccc3ncnc(Nc4ccc(OCc5cccc(F)c5)c(Cl)c4)c3c2)o1 | µM·h | 44.8 |

---

assay-notes: Inhibition of EGFRvIII mutant in human U87 cells assessed as phosphorylation after 1 hr by immunoblotting analysis
Format: cell-based
condition-label: U-87 MG
Mark label 1 for IC50 under 50 nM, label 0 if at or over.

| smiles-code | answer-label |
| --- | --- |
| C#Cc1cccc(Nc2ncnc3cc4c(cc23)OCCO4)c1 | label 0 |
| Fc1c(Cl)cccc1Nc1ncnc2cc3c(cc12)OCCO3 | label 1 |
| N#Cc1cccc(Nc2ncnc3cc4c(cc23)OCCO4)c1F | label 0 |
| Fc1ccc(Br)cc1Nc1ncnc2cc3c(cc12)OCCO3 | label 1 |
| Fc1c(Br)cc(Cl)cc1Nc1ncnc2cc3c(cc12)OCCO3 | label 0 |
| Clc1cccc(Nc2ncnc3cc4c(cc23)OCCO4)c1 | label 1 |
| Fc1c(Br)cccc1Nc1ncnc2cc3c(cc12)OCCO3 | label 1 |

---

Listed here are compounds together with their documented AUC(0-t).
assay-notes: AUC (0 to 7 hrs) in CD-1 mouse brain at 10 mg/kg, po administered via gavage by LC-MS/MS analysis
Type: ADME, organism-based
Parameters: route oral, dose 10 mg/kg, time <=7
value-type: AUC(0-t) (µM·h)

| smiles-code | quantitative-readout |
| --- | --- |
| Fc1c(Cl)cccc1Nc1ncnc2cc3c(cc12)OCCO3 | 0.403 |
| C#Cc1cccc(Nc2ncnc3cc4c(cc23)OCCO4)c1F | 0.466 |
| Fc1c(I)cccc1Nc1ncnc2cc3c(cc12)OCCO3 | 1.68 |
| C#Cc1cccc(Nc2ncnc3cc4c(cc23)OCCO4)c1 | 0.128 |
| Fc1c(Br)cccc1Nc1ncnc2cc3c(cc12)OCCO3 | 0.47 |
| Fc1cccc(Nc2ncnc3cc4c(cc23)OCCO4)c1F | 0.344 |

---

assay-notes: Drug exposure in mouse plasma at 300 mg/kg, po after 24 hrs
Type: ADME, organism-based
Parameters: route oral, dose 300 mg/kg, time 24 hrs

| smiles-code | AUC at 24 h (µM·h) |
| --- | --- |
| Fc1c(Br)cccc1Nc1ncnc2cc3c(cc12)OCCO3 | 18.5 |

---

target-or-system: Epidermal growth factor receptor (Homo sapiens, UniProt P00533)
Sequence (P00533 whole entry): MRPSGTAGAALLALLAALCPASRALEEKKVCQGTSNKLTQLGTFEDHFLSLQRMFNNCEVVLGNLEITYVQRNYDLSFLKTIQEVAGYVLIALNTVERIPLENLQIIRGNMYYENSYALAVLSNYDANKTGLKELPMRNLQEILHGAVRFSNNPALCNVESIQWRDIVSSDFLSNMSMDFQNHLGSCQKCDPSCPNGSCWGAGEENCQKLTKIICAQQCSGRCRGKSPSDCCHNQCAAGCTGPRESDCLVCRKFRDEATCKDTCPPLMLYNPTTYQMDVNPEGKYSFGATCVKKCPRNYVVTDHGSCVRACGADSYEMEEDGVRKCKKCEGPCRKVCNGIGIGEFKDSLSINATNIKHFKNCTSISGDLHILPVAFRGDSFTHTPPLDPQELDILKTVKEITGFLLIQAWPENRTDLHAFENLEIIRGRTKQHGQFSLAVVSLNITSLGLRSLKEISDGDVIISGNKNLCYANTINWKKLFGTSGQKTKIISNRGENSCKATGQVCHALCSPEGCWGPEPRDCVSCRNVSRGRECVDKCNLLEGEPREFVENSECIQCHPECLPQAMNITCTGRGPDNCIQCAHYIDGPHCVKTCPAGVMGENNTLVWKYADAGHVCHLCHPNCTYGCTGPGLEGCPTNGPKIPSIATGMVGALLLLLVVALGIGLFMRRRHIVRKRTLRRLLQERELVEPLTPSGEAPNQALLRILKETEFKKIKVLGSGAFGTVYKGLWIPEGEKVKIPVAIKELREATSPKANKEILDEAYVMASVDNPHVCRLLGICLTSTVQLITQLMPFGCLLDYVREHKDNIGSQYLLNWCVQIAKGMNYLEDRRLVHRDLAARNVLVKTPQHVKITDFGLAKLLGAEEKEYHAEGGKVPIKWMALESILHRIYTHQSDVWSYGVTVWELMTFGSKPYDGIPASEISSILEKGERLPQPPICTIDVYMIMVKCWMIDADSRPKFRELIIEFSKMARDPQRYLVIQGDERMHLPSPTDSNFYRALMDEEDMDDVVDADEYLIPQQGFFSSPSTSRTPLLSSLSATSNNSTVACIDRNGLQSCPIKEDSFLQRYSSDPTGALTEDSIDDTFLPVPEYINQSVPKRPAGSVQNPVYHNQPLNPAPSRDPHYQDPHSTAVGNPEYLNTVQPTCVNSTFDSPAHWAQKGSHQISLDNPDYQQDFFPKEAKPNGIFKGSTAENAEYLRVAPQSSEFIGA
assay-notes: Inhibition of wild type EGFR in human U87 cells assessed as heparin/human EGF stimulated phosphorylation after 1 hr by immunoblotting analysis
Type: cell-based
value-type: IC50 (nM)

| smiles-code | quantitative-readout |
| --- | --- |
| Fc1c(Nc2ncnc3cc4c(cc23)OCCO4)ccc(Cl)c1Br | 25.3 |
| Fc1c(Cl)cccc1Nc1ncnc2cc3c(cc12)OCCO3 | 4.7 |
| C#Cc1cccc(Nc2ncnc3cc4c(cc23)OCCO4)c1F | 20.5 |
| Fc1ccc(Br)c(F)c1Nc1ncnc2cc3c(cc12)OCCO3 | 15.8 |
| Fc1c(Br)cccc1Nc1ncnc2cc3c(cc12)OCCO3 | 3.95 |
| Fc1cc(Br)c(F)c(Nc2ncnc3cc4c(cc23)OCCO4)c1 | 6.8 |

---

target-or-system: Epidermal growth factor receptor (Homo sapiens)
assay-notes: Inhibition of human recombinant EGFR expressed in baculovirus infected Sf9 insect cells using poly (Glu, Tyr) 4:1 peptide as substrate incubated for 40 mins in presence of 10 uM ATP by ADP-Glo luminescence assay

| smiles-code | IC50 (nM) |
| --- | --- |
| C#Cc1cccc(Nc2ncnc3cc4c(cc23)OCCO4)c1F | 19.7 |
| Brc1cccc(Nc2ncnc3cc4c(cc23)OCCO4)c1 | 13.6 |
| Fc1cc(Br)c(F)c(Nc2ncnc3cc4c(cc23)OCCO4)c1 | 6.16 |
| Fc1c(Br)cccc1Nc1ncnc2cc3c(cc12)OCCO3 | 2.49 |
| Fc1c(Cl)cccc1Nc1ncnc2cc3c(cc12)OCCO3 | 3.91 |
| Fc1c(Nc2ncnc3cc4c(cc23)OCCO4)ccc(Cl)c1Br | 16.2 |
| Fc1cccc(Nc2ncnc3cc4c(cc23)OCCO4)c1F | 18.9 |
| N#Cc1cccc(Nc2ncnc3cc4c(cc23)OCCO4)c1F | 22 |
| Fc1ccc(Nc2ncnc3cc4c(cc23)OCCO4)c(F)c1Br | 15.6 |
| Clc1cccc(Nc2ncnc3cc4c(cc23)OCCO4)c1 | 6.41 |
| Fc1c(Nc2ncnc3cc4c(cc23)OCCO4)ccc(Br)c1Br | 21 |
| C#Cc1cccc(Nc2ncnc3cc4c(cc23)OCCO4)c1 | 48.7 |
| Fc1c(Nc2ncnc3cc4c(cc23)OCCO4)cccc1C(F)(F)F | 41.4 |

---

assay-notes: Drug exposure in mouse plasma at 10 mg/kg, po after 24 hrs
Assay type: ADME, organism-based
Design: route oral, dose 10 mg/kg, time 24 hrs
value-type: AUC at 24 h (µM·h)

| smiles-code | quantitative-readout |
| --- | --- |
| C#Cc1cccc(Nc2ncnc3cc(OCCOC)c(OCCOC)cc23)c1 | 51.7 |
